- System: M14 melanoma
- assay: NCI tumour cell line growth inhibition, 48 h
Provide the reported TGI of each item.
Value expressed in µM; do not type the unit.

Query string: Recall the recorded TGI for `Cn1c(COC(=O)N2CCCCC2)nc2c(N3CCOCC3)nc(-c3ccccc3)nc21` with M14 melanoma and state it.
Result string: 1.89

Query string: Recall the recorded TGI for `O=C1C=C(Nc2ccccc2C(=O)CC(=O)C(=O)Nc2cccc(C(F)(F)F)c2)c2ccccc2C1=O` with M14 melanoma and state it.
Result string: 31.7

Query string: Recall the recorded TGI for `O=C1/C(=C/c2ccccc2Cl)N=C(c2ccccc2)N1Cc1ccco1` with M14 melanoma and state it.
Result string: 38.2

Values were extracted from PubChem BioAssay (NCI).
